Test system: S. aureus ATCC 14154
Assay Comment: Whole cell antimicrobial screen, MIC
Format: cell-based
Particulars: Staphylococcus aureus, ATCC14154

{"Smiles Code": "CC[C@H](C)[C@H](N)C(=O)NS(=O)(=O)OC[C@H]1O[C@@H](CCn2nnc(-c3ccc(C=C(Br)Br)cc3)n2)[C@H](O)[C@@H]1O", "Tested System": "S. aureus ATCC 14154", "Rel": "=", "MIC / µg/mL": 100}
{"Smiles Code": "CC[C@H](C)[C@H](N)C(=O)NS(=O)(=O)OC[C@H]1O[C@@H](CCn2nnc(-c3ccc(Oc4ccc(N)cc4)cc3)n2)[C@H](O)[C@@H]1O", "Tested System": "S. aureus ATCC 14154", "Rel": "=", "MIC / µg/mL": 100}
{"Smiles Code": "CC[C@H](C)[C@H](N)C(=O)NS(=O)(=O)OC[C@H]1O[C@@H](CCn2nnc(Cc3ccc(Oc4ccccc4)cc3)n2)[C@H](O)[C@@H]1O", "Tested System": "S. aureus ATCC 14154", "Rel": "=", "MIC / µg/mL": 500}
{"Smiles Code": "CC[C@H](C)[C@H](N)C(=O)NS(=O)(=O)OC[C@H]1O[C@@H](CCn2nnc(-c3ccc(Oc4nccs4)cc3)n2)[C@H](O)[C@@H]1O", "Tested System": "S. aureus ATCC 14154", "Rel": "=", "MIC / µg/mL": 500}
{"Smiles Code": "CC[C@H](C)[C@H](N)C(=O)NS(=O)(=O)OC[C@H]1O[C@@H](CCn2nnc(-c3ccc(-c4ccccc4C)cc3)n2)[C@H](O)[C@@H]1O", "Tested System": "S. aureus ATCC 14154", "Rel": "=", "MIC / µg/mL": 50}
{"Smiles Code": "CC[C@H](C)[C@H](N)C(=O)NS(=O)(=O)OC[C@H]1O[C@@H](CCn2nnc(-c3ccc(Oc4ccc(C(=O)OCc5ccccc5)cc4)cc3)n2)[C@H](O)[C@@H]1O", "Tested System": "S. aureus ATCC 14154", "Rel": "=", "MIC / µg/mL": 25}
{"Smiles Code": "CC[C@H](C)[C@H](N)C(=O)NS(=O)(=O)OC[C@H]1O[C@@H](CCn2nnc(-c3ccc(C(=O)OCc4ccccc4)cc3)n2)[C@H](O)[C@@H]1O", "Tested System": "S. aureus ATCC 14154", "Rel": "=", "MIC / µg/mL": 50}
{"Smiles Code": "CC[C@H](C)[C@H](N)C(=O)NS(=O)(=O)OC[C@H]1O[C@@H](CCn2nnc(-c3ccc(-c4ccccc4C)c(C)c3)n2)[C@H](O)[C@@H]1O", "Tested System": "S. aureus ATCC 14154", "Rel": "=", "MIC / µg/mL": 25}
{"Smiles Code": "CC[C@H](C)[C@H](N)C(=O)NS(=O)(=O)OC[C@H]1O[C@@H](CCn2nnc(-c3ccc([N+](=O)[O-])o3)n2)[C@H](O)[C@@H]1O", "Tested System": "S. aureus ATCC 14154", "Rel": "=", "MIC / µg/mL": 128}
{"Smiles Code": "CC[C@H](C)[C@H](N)C(=O)NS(=O)(=O)OC[C@H]1O[C@@H](CCn2nnc(N3CCN(c4ccccc4)CC3)n2)[C@H](O)[C@@H]1O", "Tested System": "S. aureus ATCC 14154", "Rel": ">", "MIC / µg/mL": 400}
{"Smiles Code": "CC[C@H](C)[C@H](N)C(=O)NS(=O)(=O)OC[C@H]1O[C@@H](CCn2nnc(-c3ccc(C#Cc4ccc([N+](=O)[O-])s4)cc3)n2)[C@H](O)[C@@H]1O", "Tested System": "S. aureus ATCC 14154", "Rel": "=", "MIC / µg/mL": 5}
{"Smiles Code": "CC[C@H](C)[C@H](N)C(=O)NS(=O)(=O)OC[C@H]1O[C@@H](CCn2nnc(-c3ccc(Oc4ccc(OC)cc4)cc3)n2)[C@H](O)[C@@H]1O", "Tested System": "S. aureus ATCC 14154", "Rel": "=", "MIC / µg/mL": 50}

---

Tested on: M. catarrhalis ATCC 25240
Assay Comment: Whole cell antimicrobial screen, MIC
Assay type: cell-based
Particulars: Moraxella catarrhalis, ATCC25240

{"Compound": "CC[C@H](C)[C@H](N)C(=O)NS(=O)(=O)OC[C@H]1O[C@@H](CCn2nnc(N3CCN(c4ccccc4)CC3)n2)[C@H](O)[C@@H]1O [XXIV]", "MIC": "400 µg/mL"}
{"Compound": "CC[C@H](C)[C@H](N)C(=O)NS(=O)(=O)OC[C@H]1O[C@@H](CCn2nnc(-c3ccc(-c4ccccc4)c(C)c3)n2)[C@H](O)[C@@H]1O [XX]", "MIC": "25 µg/mL"}
{"Compound": "CC[C@H](C)[C@H](N)C(=O)NS(=O)(=O)OC[C@H]1O[C@@H](CCn2nnc(-c3ccc(-c4ccccc4C)cc3)n2)[C@H](O)[C@@H]1O [XIX]", "MIC": "50 µg/mL"}
{"Compound": "CC[C@H](C)[C@H](N)C(=O)NS(=O)(=O)OC[C@H]1O[C@@H](CCn2nnc(-c3ccc(C#Cc4ccccc4)cc3)n2)[C@H](O)[C@@H]1O [IV]", "MIC": "5 µg/mL"}

---

This listing pairs molecules with measured MIC.
System: B. subtilis ATCC 6633
Assay Comment: Whole cell antimicrobial screen, MIC
Format: cell-based
Particulars: Bacillus subtilis, ATCC6633
Metric: MIC (µg/mL)

{"Smiles Code": "CC[C@H](C)[C@H](N)C(=O)NS(=O)(=O)OC[C@H]1O[C@@H](CCn2nnc(-c3ccc(C#Cc4ccccc4)cc3)n2)[C@H](O)[C@@H]1O", "Unit Label": "µg/mL", "Rel": "=", "Measured Result": 25}
{"Smiles Code": "CC[C@H](C)[C@H](N)C(=O)NS(=O)(=O)OC[C@H]1O[C@@H](CCn2nnc(-c3ccc(-c4ccccn4)nc3)n2)[C@H](O)[C@@H]1O", "Unit Label": "µg/mL", "Rel": ">", "Measured Result": 500}
{"Smiles Code": "CC[C@H](C)[C@H](N)C(=O)NS(=O)(=O)OC[C@H]1O[C@@H](CCn2nnc(-c3ccc(-c4ccccc4)cc3C)n2)[C@H](O)[C@@H]1O", "Unit Label": "µg/mL", "Rel": "=", "Measured Result": 100}

---

Tested on: S. aureus ATCC 14154
Assay Comment: Whole cell antimicrobial screen, MIC
Type: cell-based
Particulars: Staphylococcus aureus, ATCC14154

{"Compound": "CC[C@H](C)[C@H](N)C(=O)NS(=O)(=O)OC[C@H]1O[C@@H](Cn2nnc(Cc3ccc(Oc4ccccc4)cc3)n2)[C@H](O)[C@@H]1O [XXVII]", "Unit Label": "µg/mL", "Rel": ">", "MIC": 500}
{"Compound": "CC[C@H](C)[C@H](N)C(=O)NS(=O)(=O)OC[C@H]1O[C@@H](CCn2nnc(-c3ccc(C#Cc4ccc([N+](=O)[O-])o4)cc3)n2)[C@H](O)[C@@H]1O [II]", "Unit Label": "µg/mL", "Rel": "=", "MIC": 8}
{"Compound": "CC[C@H](C)[C@H](N)C(=O)NS(=O)(=O)OC[C@H]1O[C@@H](CCn2nnc(-c3ccc(Oc4ccccn4)cc3)n2)[C@H](O)[C@@H]1O [XVI]", "Unit Label": "µg/mL", "Rel": "=", "MIC": 100}

---

Tested System: E. Coli. IleRS (isoleucyl-tRNA synthetase) (Escherichia coli, UniProt P00956)
Sequence (P00956 whole entry): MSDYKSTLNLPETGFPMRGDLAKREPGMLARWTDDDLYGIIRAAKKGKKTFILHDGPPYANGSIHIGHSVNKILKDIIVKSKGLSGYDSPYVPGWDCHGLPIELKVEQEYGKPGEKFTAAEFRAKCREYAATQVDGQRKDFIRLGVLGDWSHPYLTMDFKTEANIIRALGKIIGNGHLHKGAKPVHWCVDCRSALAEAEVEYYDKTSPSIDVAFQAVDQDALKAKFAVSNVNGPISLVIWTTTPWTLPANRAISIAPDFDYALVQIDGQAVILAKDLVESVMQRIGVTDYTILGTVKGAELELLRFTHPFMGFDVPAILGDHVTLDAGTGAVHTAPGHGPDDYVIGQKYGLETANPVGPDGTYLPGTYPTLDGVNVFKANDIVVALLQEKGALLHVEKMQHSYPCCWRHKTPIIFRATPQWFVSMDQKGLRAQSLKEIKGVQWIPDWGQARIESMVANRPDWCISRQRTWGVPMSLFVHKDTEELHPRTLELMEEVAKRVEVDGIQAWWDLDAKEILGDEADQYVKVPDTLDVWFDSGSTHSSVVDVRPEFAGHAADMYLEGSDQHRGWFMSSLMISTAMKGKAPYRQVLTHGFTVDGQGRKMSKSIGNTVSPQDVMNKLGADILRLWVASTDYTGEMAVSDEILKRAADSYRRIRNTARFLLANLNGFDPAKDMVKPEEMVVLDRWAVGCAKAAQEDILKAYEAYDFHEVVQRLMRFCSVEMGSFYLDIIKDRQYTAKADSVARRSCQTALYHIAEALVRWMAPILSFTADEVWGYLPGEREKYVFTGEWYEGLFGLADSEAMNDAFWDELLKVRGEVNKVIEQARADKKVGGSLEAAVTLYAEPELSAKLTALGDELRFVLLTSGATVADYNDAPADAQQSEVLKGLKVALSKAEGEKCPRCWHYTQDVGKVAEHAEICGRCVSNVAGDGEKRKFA
Assay Comment: Inhibition of isoleucyl-tRNA synthetase (aminoacylation of tRNA with [3H]isoleucine)
Type: biochemical
Particulars: read-out: IC50 E.Coli. IleRS; E. coli enzyme; irreversible inhibitors: values are 50% of the active enzyme concentration

{"Smiles Code": "CC[C@H](C)[C@H](N)C(=O)NS(=O)(=O)OC[C@H]1O[C@@H](CCn2nnc(-c3ccc(Oc4ccccc4)cc3)n2)[C@H](O)[C@@H]1O", "IC50 [nM]": 1.3}

---

Tested System: E. Coli. IleRS (isoleucyl-tRNA synthetase) (Escherichia coli)
Assay Comment: Inhibition of isoleucyl-tRNA synthetase (aminoacylation of tRNA with [3H]isoleucine)
Format: biochemical
Particulars: E. coli enzyme; irreversible inhibitors: values are 50% of the active enzyme concentration; read-out: IC50 E.Coli. IleRS

{"Smiles Code": "CC[C@H](C)[C@H](N)C(=O)NS(=O)(=O)OC[C@H]1O[C@@H](CCn2nnc(-c3ccc(C#Cc4ccccc4)cc3)n2)[C@H](O)[C@@H]1O", "IC50": "4.5 nM"}
{"Smiles Code": "CC[C@H](C)[C@H](N)C(=O)NS(=O)(=O)OC[C@H]1O[C@@H](Cn2nnc(Cc3ccc(Oc4ccccc4)cc3)n2)[C@H](O)[C@@H]1O", "IC50": "135 nM"}
{"Smiles Code": "CC[C@H](C)[C@H](N)C(=O)NS(=O)(=O)OC[C@H]1O[C@@H](CCn2nnc(-c3ccc(C(=O)OCc4ccccc4)cc3)n2)[C@H](O)[C@@H]1O", "IC50": "7.5 nM"}
